Origin of measurements: patent US8633200B2

- Test system: recombinant NL-Rluc virus (NL4-3 with Renilla Luciferase gene) in MT-2 cells
- experiment: Inhibition of HIV replication (NL-Rluc luciferase reporter virus, MT-2 cells)
- Format: cell-based, human immunodeficiency virus (HIV)
- experimental_parameters: NL43, 120 h, read-out: Activity
Counter-ions that a name gives are not always drawn.

compound	EC50
Cc1nc2cc(-c3ccc(Cl)cc3)nn2c(-c2cc(F)c3c(c2C)CCCO3)c1C(OC(C)(C)C)C(=O)O (stereo not shown) [Example 96, TFA salt]	100 to 1000 nM
Cc1nc2cc(-c3cccc(OCc4ccc(Cl)cc4)c3)nn2c(-c2cc(F)c3c(c2C)CCCO3)c1C(OC(C)(C)C)C(=O)O (stereo not shown) [Example 106, TFA salt]	< 100 nM
Cc1nc2cc(-c3ccccc3)nn2c(-c2cccc3cnccc23)c1C(OC(C)(C)C)C(=O)O (stereo not shown)	> 1000 nM
Cc1nc2cc(-c3ccccc3)nn2c(-c2ccncc2)c1C(OC(C)(C)C)C(=O)O (stereo not shown)	> 1000 nM
Cc1nc2cc(-c3cccc(-c4cnn(-c5ccccc5)c4C)c3)nn2c(-c2cc(F)c3c(c2C)CCCO3)c1[C@H](OC(C)(C)C)C(=O)O	< 100 nM
Cc1ccc(-c2c(C(OC(C)(C)C)C(=O)O)c(C)nc3cc(-c4ccccc4)nn23)c(F)c1 (stereo not shown)	100 to 1000 nM
Cc1nc2c(-c3cccc(Cl)c3)cnn2c(-c2cc(F)c3c(c2C)CCCO3)c1C(OC(C)(C)C)C(=O)O (stereo not shown)	100 to 1000 nM
Cc1nc2cc(-c3ccccc3)nn2c(-c2ccc3ccccc3c2)c1C(OC(C)(C)C)C(=O)O (stereo not shown)	> 1000 nM
Cc1nc2cc(-c3ccccc3)nn2c(-c2ccc(OC(C)C)cc2)c1C(OC(C)(C)C)C(=O)O (stereo not shown)	> 1000 nM
Cc1ccc(-c2cccc(-c3cc4nc(C)c([C@H](OC(C)(C)C)C(=O)O)c(-c5cc(F)c6c(c5C)CCCO6)n4n3)c2)cc1 [Example 126, TFA salt]	< 100 nM
COc1cccc(-c2cccc(-c3cc4nc(C)c([C@H](OC(C)(C)C)C(=O)O)c(-c5cc(F)c6c(c5C)CCCO6)n4n3)c2)c1 [Example 129, TFA salt]	< 100 nM
Cc1nc2cc(-c3cccc(OCc4ccccc4)c3)nn2c(-c2cc(F)c3c(c2C)CCCO3)c1C(OC(C)(C)C)C(=O)O (stereo not shown) [Example 93, TFA salt]	< 100 nM
Cc1ccccc1-c1cccc(-c2cc3nc(C)c([C@H](OC(C)(C)C)C(=O)O)c(-c4cc(F)c5c(c4C)CCCO5)n3n2)c1	< 100 nM
Cc1nc2cc(-c3ccccc3)nn2c(-c2ccc(Oc3ccccc3)cc2)c1C(OC(C)(C)C)C(=O)O (stereo not shown)	> 1000 nM
Cc1nc2cc(-c3ccccc3)nn2c(-c2ccc3cc[nH]c3c2)c1C(OC(C)(C)C)C(=O)O (stereo not shown)	> 1000 nM
Cc1nc2c(-c3cccc(Cl)c3)cnn2c(-c2ccc3c(c2)CCCO3)c1C(OC(C)(C)C)C(=O)O (stereo not shown)	100 to 1000 nM
Cc1nc2cc(-c3ccc4c(c3)CCCC4)nn2c(-c2ccc(F)cc2)c1[C@H](OC(C)(C)C)C(=O)O	> 1000 nM
Cc1nc2cc(-c3ccccc3)nn2c(-c2ccc(F)cc2F)c1C(OC(C)(C)C)C(=O)O (stereo not shown)	> 1000 nM
Cc1nc2cc(-c3ccccc3)nn2c(-c2cccc(Cl)c2)c1C(OC(C)(C)C)C(=O)O (stereo not shown)	> 1000 nM
